Parameter 'readout' = Ki; parameter 'system' = UniProt O42275.
Sequence (O42275 24-633): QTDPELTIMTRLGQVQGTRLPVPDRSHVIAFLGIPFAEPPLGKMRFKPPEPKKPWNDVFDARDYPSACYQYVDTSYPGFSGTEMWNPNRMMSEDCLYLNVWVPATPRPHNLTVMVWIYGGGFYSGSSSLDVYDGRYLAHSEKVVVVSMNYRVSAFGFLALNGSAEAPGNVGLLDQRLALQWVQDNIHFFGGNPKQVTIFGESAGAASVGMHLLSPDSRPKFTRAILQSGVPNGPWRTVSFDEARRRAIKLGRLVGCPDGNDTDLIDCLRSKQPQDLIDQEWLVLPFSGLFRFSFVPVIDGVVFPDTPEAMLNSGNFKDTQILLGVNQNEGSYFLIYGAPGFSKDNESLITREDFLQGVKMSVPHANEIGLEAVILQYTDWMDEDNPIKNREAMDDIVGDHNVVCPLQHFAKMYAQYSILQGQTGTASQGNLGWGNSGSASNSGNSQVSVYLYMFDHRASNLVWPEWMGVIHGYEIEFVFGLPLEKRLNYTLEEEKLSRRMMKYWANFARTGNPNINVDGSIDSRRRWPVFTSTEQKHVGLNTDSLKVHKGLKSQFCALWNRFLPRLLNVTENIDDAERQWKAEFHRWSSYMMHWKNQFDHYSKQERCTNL
All answers are understood in nM, so give the number only.

C=CCN1C(=O)/C(=C/c2cc(CN3CCc4ccccc4C3)c(O)c(OCC)c2)SC1=S; 12.7
C=CCN1C(=O)/C(=C/c2cc(Br)c(O)c(CN3CCOCC3)c2)SC1=S; 43
C=CCN1C(=O)/C(=C/c2cc(CN3CCN(c4ccccc4)CC3)c(O)c(OCC)c2)SC1=S; 18.6
C=CCN1C(=O)/C(=C/c2cc(CN3CCN(C)CC3)c(O)c(OC)c2)SC1=S; 46
C=CCN1C(=O)/C(=C/c2cc(CN3CCOCC3)c(O)c(OCC)c2)SC1=S; 85.1

### Prompt Item: C=CCN1C(=O)/C(=C/c2cc(CN3CCCC(C)C3)c(O)c(OC)c2)SC1=S (centres unmarked) Test system: UniProt O42275 Read-out: Ki Value: ?
### Response 95.3

### Prompt Item: C=CCN1C(=O)/C(=C/c2cc(CN3CCN(c4ccccc4)CC3)c(O)c(OC)c2)SC1=S Test system: UniProt O42275 Read-out: Ki Value: ?
### Response 62

### Prompt Item: C=CCN1C(=O)/C(=C/c2cc(CN3CCN(c4ncccn4)CC3)c(O)c(OC)c2)SC1=S Test system: UniProt O42275 Read-out: Ki Value: ?
### Response 25.4

Data credit: paper PMC12704249
